- Tested on: Rattus norvegicus
- experiment.description: Antiobesity activity in Sprague-Dawley rat assessed as reduction of food intake at 3 mg/kg, sc qd measured after 7 to 24 hrs relative to control
- Type: functional
- Design: scale not given: the % may be the effect or the level left
- cond: route subcutaneous

| compound | Activity (%) |
| --- | --- |
| CCCC[C@H](NC(=O)[C@H](CCCNC(=N)N)NC(=O)[C@H](Cc1cnc[nH]1)NC(=O)[C@H](CCC(N)=O)NC(=O)[C@H](CO)NC(=O)CNC(=O)COCCOCCNC(=O)CCCCCCCCCCCCCCCc1nnn[nH]1)C(=O)N[C@H]1CCC(=O)NCCCC[C@@H](C(N)=O)NC(=O)[C@H](Cc2c[nH]c3ccccc23)NC(=O)[C@H](CCCNC(=N)N)NC(=O)[C@@H](Cc2ccccc2)NC(=O)[C@@H]2C[C@@H](O)CN2C1=O | 51 |
| CCCC[C@H](NC(C)=O)C(=O)N[C@H]1CC(=O)NCCCC[C@@H](C(=O)O)NC(=O)[C@H](Cc2c[nH]c3ccccc23)NC(=O)[C@H](CCCNC(=N)N)NC(=O)[C@@H](Cc2ccccc2)NC(=O)[C@H](Cc2c[nH]cn2)NC1=O [BREMELANOTIDE] | 91 |
| CCCC[C@H](NC(=O)[C@H](CN)NC(=O)[C@H](Cc1cnc[nH]1)NC(=O)[C@H](CCC(N)=O)NC(=O)[C@H](CO)NC(=O)CNC(=O)COCCOCCNC(=O)CCCCCCCCCCCCCCCc1nnn[nH]1)C(=O)N[C@H]1CCC(=O)NCCCC[C@@H](C(N)=O)NC(=O)[C@H](Cc2c[nH]c3ccccc23)NC(=O)[C@H](CCCNC(=N)N)NC(=O)[C@@H](Cc2ccccc2)NC(=O)[C@@H]2C[C@@H](O)CN2C1=O | 45 |
| CCCCCCCCCCCCCCCC(=O)NCC(=O)N[C@@H](CO)C(=O)N[C@@H](CCC(N)=O)C(=O)N[C@@H](CCCCNC(=N)N)C(=O)N[C@@H](CO)C(=O)N[C@@H](CCCC)C(=O)N[C@H]1CCC(=O)NCCCC[C@@H](C(N)=O)NC(=O)[C@H](Cc2c[nH]c3ccccc23)NC(=O)[C@H](CCCNC(=N)N)NC(=O)[C@@H](Cc2ccccc2)NC(=O)[C@@H]2C[C@@H](O)CN2C1=O | 57 |
| CCCC[C@H](NC(=O)[C@H](CCC(=O)O)NC(=O)[C@H](CCCNC(=N)N)NC(=O)[C@H](CCC(=O)O)NC(=O)[C@H](CCC(=O)O)NC(=O)CNC(=O)COCCOCCNC(=O)CCCCCCCCCCCCCCCc1nnn[nH]1)C(=O)N[C@H]1CCC(=O)NCCCC[C@@H](C(N)=O)NC(=O)[C@H](Cc2c[nH]c3ccccc23)NC(=O)[C@H](CCCNC(=N)N)NC(=O)[C@@H](Cc2ccccc2)NC(=O)[C@@H]2C[C@@H](O)CN2C1=O | 90 |

These measurements were taken from ChEMBL document CHEMBL2069212.
